target: T1, Recombinant human CD4 (R&D Systems, Cat. 10327-CD) (human, UniProt P01730 26-390, limits assumed); experiment: BLI (Octet Red384), purified antibody on anti-mouse Fc sensors, human CD4 100/50/25 nM, global 1:1 fit;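 also: antibodies loaded at 10 µg/mL, curves fitted across association and dissociation phases, with an unrelated mouse-derived antibody serving as internal reference control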
T1 construct: Bought protein; also called huCD4
attribute-measured: kon (M⁻¹ s⁻¹)
# value in M⁻¹ s⁻¹; strip the unit string

The following binders have reported results that may help.
| binder | attribute-measured | recorded-result |
| --- | --- | --- |
| 75110_08H11A (antibody, V domains shown, Tested as antibody purified from AlivaMab Mouse Kappa hybridoma (human V regions, kappa light chain, mouse Fc captured by anti-mouse Fc sensors); also called 75110_08H1lA) VH: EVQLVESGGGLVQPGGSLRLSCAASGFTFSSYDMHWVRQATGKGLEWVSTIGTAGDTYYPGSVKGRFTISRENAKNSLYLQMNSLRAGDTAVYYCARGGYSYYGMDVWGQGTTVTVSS VL: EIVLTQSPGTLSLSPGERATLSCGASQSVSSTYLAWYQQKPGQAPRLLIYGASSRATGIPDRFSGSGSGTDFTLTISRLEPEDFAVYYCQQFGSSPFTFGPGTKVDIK | kon | 1400 |
| 75110_13P22A (antibody, V domains shown, Tested as antibody purified from AlivaMab Mouse Kappa hybridoma (human V regions, kappa light chain, mouse Fc captured by anti-mouse Fc sensors)) VH: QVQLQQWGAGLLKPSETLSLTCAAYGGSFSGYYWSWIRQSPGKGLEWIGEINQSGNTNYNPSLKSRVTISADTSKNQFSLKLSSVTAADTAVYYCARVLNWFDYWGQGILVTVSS VL: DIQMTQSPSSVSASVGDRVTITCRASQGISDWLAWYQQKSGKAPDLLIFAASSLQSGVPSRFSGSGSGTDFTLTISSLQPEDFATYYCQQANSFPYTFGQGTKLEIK | kon | 86000 |

Okay, now this binder:
# return recorded kon for input 75110_10O16A (antibody, V domains shown, Tested as antibody purified from AlivaMab Mouse Kappa hybridoma (human V regions, kappa light chain, mouse Fc captured by anti-mouse Fc sensors); also called 75110_10016A) VH: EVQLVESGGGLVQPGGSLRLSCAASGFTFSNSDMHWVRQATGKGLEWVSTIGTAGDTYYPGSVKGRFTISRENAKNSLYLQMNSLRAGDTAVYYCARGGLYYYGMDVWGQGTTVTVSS VL: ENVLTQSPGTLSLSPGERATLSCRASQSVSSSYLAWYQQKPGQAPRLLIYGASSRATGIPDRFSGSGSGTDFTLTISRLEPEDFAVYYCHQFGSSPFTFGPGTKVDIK 140000

Sourced from patent US20220112288A1
